System: Hepatitis C virus
Assay: Antiviral activity against Hepatitis C virus
Format: functional, organism-based, Hepacivirus hominis
Each item that follows carries a reported EC50.
measuredAttribute: EC50 (µM)

{"columns": ["molecule", "assayValue"],
 "data": [
  ["OC[C@@]12O[C@@](Cn3cnc4c(Cl)ncnc43)(c3ccccc31)[C@H](O)[C@@H]2O", 45.1],
  ["O[C@H]1C[C@@]2(Cn3cnc4c(Cl)ncnc43)O[C@@H]1c1ccccc12", 45.1],
  ["OCC12CCC(O1)c1cc3ccccc3cc12 (stereo not drawn)", 6.31],
  ["OCC12C=CC(Cn3cnc4c(Cl)ncnc43)(O1)c1ccccc12 (stereo not drawn)", 45.1],
  ["Clc1ncnc2c1ncn2CC12C=CC(O1)c1ccccc12 (stereo not drawn)", 6.31],
  ["O=C(OCC12C=CC(O1)c1cc3ccccc3cc12)c1ccccc1 (stereo not drawn)", 6.31],
  ["Clc1ncnc2c1ncn2CC12CCC(O1)c1cc3ccccc3cc12 (stereo not drawn)", 6.31],
  ["OCC12CCC(Cn3cnc4c(Cl)ncnc43)(O1)c1ccccc12 (stereo not drawn)", 45.1]
]}

# credit: ChEMBL document CHEMBL3826905
